observed_property: melting point

Sample records with melting point:
smiles_code: CCNC(=O)Nc1nc2cc(-c3cnc(OC)nc3)ccn2n1
melting point: 243 to 248 °C

smiles_code: CCNC(=O)Nc1nc2cc(-c3cccnc3)cc(C(=O)NC)n2n1
melting point: > 300 °C

smiles_code: CCNC(=O)Nc1nc2cc(-c3cccnc3)cc(OCCN3CCCC3)n2n1
melting point: 189 to 192 °C (dec.)

I'm hoping you can list melting point for every molecule here, please.
1. CCNC(=O)Nc1nc2cc(-c3cncnc3)cc(C(=O)NCC)n2n1
2. CCNC(=O)Nc1nc2cc(-c3cnc(N(C)C)nc3)cc(C(=O)NCC)n2n1

Key:
1: 317 to 321 °C; 2: 328 to 334 °C

---

Assignment: determine reported melting point for the given compounds.

Sample records with melting point:
compound: CCNC(=O)Nc1nc2cc(-c3cccnc3)ccn2n1 [Example 1]
melting point: 230 to 233 °C
//
compound: CCNC(=O)Nc1nc2cc(-c3cccnc3)cc(-c3nc(C)no3)n2n1 [Example 18]
melting point: 298 to 301 °C

I'm hoping you can list melting point for every compound here, please.
1. CCNC(=O)Nc1nc2cc(-c3ccc(OC)nc3)ccn2n1 [Example 2]
2. CCNC(=O)Nc1nc2cc(-c3cccnc3)cc(N3CCC(N(C)C)C3)n2n1 (centres unmarked) [Example 130]
3. CCNC(=O)Nc1nc2cc(-c3cccnc3)cc(N3CCOCC3)n2n1 [Example 133]
4. CCNC(=O)Nc1nc2cc(-c3cccnc3)cc(OCCN(C)C)n2n1 [Example 141]
5. CCNC(=O)Nc1nc2cc(-c3cccnc3)cc(N3CCC(O)C3)n2n1 (centres unmarked) [Example 134]

Key:
1. 230 to 233 °C
2. 248 to 250 °C
3. 298 to 300 °C
4. 200 to 202 °C
5. 296 to 298 °C

---

observed_property: melting point

smiles_code: CCNC(=O)Nc1nc2cc(-c3cccnc3)cc(C(=O)OC)n2n1
observed_result: 211 to 213 °C

I'm hoping you can list melting point for every molecule here, please.
1. CCNC(=O)Nc1nc2cc(-c3cccnc3)cc(C(=O)OCC)n2n1
2. CCNC(=O)Nc1nc2cc(-c3cccnc3)cc(-c3nnc(C)o3)n2n1
3. CCNC(=O)Nc1nc2cc(-c3c(C)noc3C)cc(C(=O)NCC)n2n1

Key:
1: 242 to 245 °C; 2: 318 to 321 °C; 3: 238 to 241 °C
